- tgt: T1, V-Set And Immunoglobulin Domain Containing 4 (VSIG4) (human, UniProt Q9Y279 20-283, limits assumed)
- T1 construct: also called CRIg; Z39Ig
- T1 sequence (looked up): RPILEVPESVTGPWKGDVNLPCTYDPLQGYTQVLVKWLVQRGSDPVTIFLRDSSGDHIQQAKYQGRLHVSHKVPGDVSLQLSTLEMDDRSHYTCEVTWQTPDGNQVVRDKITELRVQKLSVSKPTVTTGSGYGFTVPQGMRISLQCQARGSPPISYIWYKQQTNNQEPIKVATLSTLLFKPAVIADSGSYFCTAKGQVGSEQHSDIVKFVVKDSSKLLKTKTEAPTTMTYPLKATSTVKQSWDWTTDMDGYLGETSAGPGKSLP
- method-summary: kinetic affinity measurement; method not stated
assay-readout: pKd
Schema: pKd number; meaning minus log10 of the concentration expressed in molar units.

Answered cases to consult:
{"binder": "A2.3 antibody (EU103_T01.02S) (antibody, V domains shown, Generated from A2) VH: QVTLVESGPTLVKPGQTLTLTCTFSGISLTTSGMGVGWIRQPPGKALEWLADIFWDDNKYYNPSLKGRLTITKDTSKNQVYLTMTNMDPVDTATYYCVRVYYKNDGYFDVWGKGTTVTVSS VL: DIVLTQSPLSLPVTLGQPASISCRASKSVTTSGYSFMHWYQQRPGQSPRLLIYLASNLEPGVPDRFSGSGSGTDFTLKIFRVEAEDVGVYYCQQSGELPYTFGQGTKLEIK", "pKd": 8.12}
{"binder": "A1 antibody (EU103_T01.01) (antibody, V domains shown) VH: QVTLKESGPTLVKPTQTLTLTCTFSGISLTTSGMGVGWIRQPPGKALEWLADIFWDDNKYYNPSLKSRLTITKDTSKNQVVLTMTNMDPVDTATYYCVRVYYKNDGYFDVWGKGTTVTVSS VL: DIVLTQSPLSLPVTLGQPASISCRASKSVTTSGYSFMHWYQQRPGQSPRLLIYLASNLEPGVPDRFSGSGSGTDFTLKISRVEAEDVGVYYCQQSGELPYTFGQGTKLEIK", "pKd": 8.06}
{"binder": "A1.3 antibody (EU103_T01.01S) (antibody, V domains shown, Generated from A1) VH: QVTLVESGPTLVKPGQTLTLTCTFSGISLTTSGMGVGWIRQPPGKALEWLADIFWDDNKYYNPSLKGRLTITKDTSKNQVYLTMTNMDPVDTATYYCVRVYYKNDGYFDVWGKGTTVTVSS VL: DIVLTQSPLSLPVTLGQPASISCRASKSVTTSGYSFMHWYQQRPGQSPRLLIYLASNLEPGVPDRFSGSGSGTDFTLKISRVEAEDVGVYYCQQSGELPYTFGQGTKLEIK", "pKd": 8.10}

Given the binder A2 antibody (EU103_T01.02) (antibody, V domains shown) VH: QVTLKESGPTLVKPTQTLTLTCTFSGISLTTSGMGVGWIRQPPGKALEWLADIFWDDNKYYNPSLKSRLTITKDTSKNQVVLTMTNMDPVDTATYYCVRVYYKNDGYFDVWGKGTTVTVSS VL: DIVLTQSPLSLPVTLGQPASISCRASKSVTTSGYSFMHWYQQRPGQSPRLLIYLASNLEPGVPDRFSGSGSGTDFTLKIFRVEAEDVGVYYCQQSGELPYTFGQGTKLEIK , write its reported pKd. 8.08
